// provenance: patent US7094900B2

Assign MIC to each entry below.
Write the number in mg/L without appending the unit.

In: Report MIC under test system Saur 9213 for O=C1CCC(c2c(F)cc(N3C[C@H](CNC(=O)C(Cl)Cl)OC3=O)cc2F)CN1 (some centres unmarked) .
Out: 2

In: Report MIC under test system Saur 9213 for CC(=O)NC[C@H]1CN(c2cc(F)c(C3CCC(=O)NC3)c(F)c2)C(=O)O1 (some centres unmarked) .
Out: 4

In: Report MIC under test system Saur 9213 for CC(=O)NC[C@H]1CN(c2ccc(C3CCNC(=O)C3)c(F)c2)C(=O)O1 (some centres unmarked) .
Out: 2

In: Report MIC under test system Saur 9213 for CC(=O)NC[C@H]1CN(c2cc(F)c(C3CCNC(=O)C3)c(F)c2)C(=O)O1 (some centres unmarked) .
Out: 4

In: Report MIC under test system Saur 9213 for O=C1CCC(c2c(F)cc(N3C[C@H](CNC(=O)C(F)F)OC3=O)cc2F)CN1 (some centres unmarked) .
Out: 4

In: Report MIC under test system Saur 9213 for CC(=O)NC[C@H]1CN(c2ccc(C3CCN(C)C(=O)C3)cc2)C(=O)O1 (some centres unmarked) .
Out: 4

In: Report MIC under test system Saur 9213 for CCC(=O)NC[C@H]1CN(c2ccc(C3CCC(=O)NC3)cc2)C(=O)O1 (some centres unmarked) .
Out: 8

In: Report MIC under test system Saur 9213 for CCC(=O)NC[C@H]1CN(c2ccc(C3CCNC(=O)C3)c(F)c2)C(=O)O1 (some centres unmarked) .
Out: 4
